- assay info: NCI Yeast Anticancer Drug Screen. Data for the wt2 strain (AID 169)
- experimental parameters: S. cerevisiae wt2 strain growth inhibition; at 100.0 µM; hits give high values
Compounds without any hit were thinned out: in the full panel of roughly 79,000, 15% have a hit.
Classification field: enter MET for growth inhibition values not below 70%, NOT MET for values below it.

INPUT: Could you please find out whether Oc1ccc(-c2nc(-c3ccc(F)cc3)c(-c3ccc4ccccc4n3)[nH]2)cc1 has growth inhibition that meets 70% or exceeds it?
OUTPUT: MET

INPUT: Could you please find out whether Cc1cc(-c2cc(C)c(O)c(C(C)(C)C)c2)cc(C(C)(C)C)c1O has growth inhibition that meets 70% or exceeds it?
OUTPUT: NOT MET

INPUT: Could you please find out whether CC(=O)Nc1ccc2c(c1)Cc1cc(N=C3C=CC(=O)O3)ccc1-2 has growth inhibition that meets 70% or exceeds it?
OUTPUT: MET

INPUT: Could you please find out whether CC(/C=C/c1ccccc1)=N\NC(N)=S has growth inhibition that meets 70% or exceeds it?
OUTPUT: NOT MET

INPUT: Could you please find out whether Nc1ncc(-c2ccc(Br)cc2)s1 has growth inhibition that meets 70% or exceeds it?
OUTPUT: MET

INPUT: Could you please find out whether N#CC(C#N)=NNc1ccc(S(=O)(=O)O)cc1 has growth inhibition that meets 70% or exceeds it?
OUTPUT: NOT MET

INPUT: Could you please find out whether COc1ccc2c(c1)n([O-])c1ccccc1[n+]2=O has growth inhibition that meets 70% or exceeds it?
OUTPUT: MET

INPUT: Could you please find out whether CN(C)CCOC1(Cc2ccc(F)cc2)CCC(C(C)(C)C)CC1 (stereo not given) has growth inhibition that meets 70% or exceeds it?
OUTPUT: MET

INPUT: Could you please find out whether O=C(Nc1ccc(Cl)cc1)Nc1nnc2nc(C(C(=O)c3cccc([N+](=O)[O-])c3Cl)c3nc4nnc(NC(=O)Nc5ccc(Cl)cc5)n4[nH]c3=O)c(=O)[nH]n12 has growth inhibition that meets 70% or exceeds it?
OUTPUT: NOT MET
